compounds and their reported inhibition
- study target: RAC-alpha serine/threonine-protein kinase (Homo sapiens)
- Sequence (P31749 whole entry): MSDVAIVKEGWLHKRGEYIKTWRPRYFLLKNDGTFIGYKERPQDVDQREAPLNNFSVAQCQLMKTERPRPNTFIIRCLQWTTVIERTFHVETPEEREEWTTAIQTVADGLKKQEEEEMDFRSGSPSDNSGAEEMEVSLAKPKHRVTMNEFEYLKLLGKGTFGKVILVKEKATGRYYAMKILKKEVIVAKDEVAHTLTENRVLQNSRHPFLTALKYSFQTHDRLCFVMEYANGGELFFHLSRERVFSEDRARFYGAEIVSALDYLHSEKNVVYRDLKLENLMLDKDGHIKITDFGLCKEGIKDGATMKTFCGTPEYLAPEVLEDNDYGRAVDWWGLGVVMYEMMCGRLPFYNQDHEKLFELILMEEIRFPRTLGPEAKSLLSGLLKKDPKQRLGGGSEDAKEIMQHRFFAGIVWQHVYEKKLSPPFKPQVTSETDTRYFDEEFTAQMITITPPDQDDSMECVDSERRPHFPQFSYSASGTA
- assay remarks: Inhibition of Akt using RPRTSSF peptide and [gamma32]ATP at 5 uM by cell-free radioactive assay relative to control
*1 amine or outer side, *2 acyl side, *3 side chain or, on linkers, in order; H or OH if unused. Where a SMILES comes first, the peptide text is derived from it. Bridges are numbered along the chain shown (N, C = ends). [ ]: non-standard residue; d: D form. Glutaryl = O=C(CCCC(=O)[*:2])[*:1]; Suc = O=C(CCC(=O)[*:2])[*:1]; hLeu = CC(C)CC[C@H](N)C(=O)O; Nva = CCC[C@H](N)C(=O)O; Dap = NC[C@H](N)C(=O)O; Nlys = NCCCCNCC(=O)O
experimental endpoint: inhibition

compound | experimental endpoint | observed
CCC[C@@H]1NC(=O)[C@H](CCCNC(=N)N)NC(=O)[C@@H]2CCCN2C(=O)[C@H](CCCNC(=N)N)NC(=O)CCCC(=O)NCCCCN(CC(N)=O)C(=O)[C@H](CCC(C)C)NC(=O)[C@H](CN)NC(=O)[C@H](Cc2ccc(O)cc2)NC1=O (RPR[Nva]Y[Dap][hLeu][Nlys]-NH2; linker N-8 via Glutaryl) | inhibition | 14%
CCC[C@@H]1NC(=O)[C@H](CCCNC(=N)N)NC(=O)[C@@H]2CCCN2C(=O)[C@H](CCCNC(=N)N)NC(=O)CCC(=O)NCCCCN(CC(N)=O)C(=O)[C@H](CCC(C)C)NC(=O)[C@H](CN)NC(=O)[C@H](Cc2ccc(O)cc2)NC1=O (RPR[Nva]Y[Dap][hLeu][Nlys]-NH2; linker N-8 via Suc) | inhibition | 13%
